assay: qHTS Assay for Spectroscopic Profiling in A350 Spectral Region; conditions: Compound autofluorescence, 340/450 nm, Alexa 350 dye-equivalents
Hit rate of the full screen: of about 59,000 compounds, about 6,500 (11%) were called active. Inconclusive results (about 15%) are left out. Rule as the data show it: active = max dye-equivalent concentration above about 10 nM; inconclusive = mostly about 1.1 nM to 9.6 nM; inactive = weaker than that. Many of the other results were omitted from the sample, so actives are more common in it than they were.
Would you mind answering with one of these outcomes? active, inactive

Data request: What was the test verdict on CC(=O)N1CCC2(CCCN(Cc3ccc(C#N)cc3)C2)CC1 ?
Data returned: inactive

Data request: And the next one, CCn1c(SCC(=O)Nc2nccs2)nnc1-c1ccncc1 ?
Data returned: inactive

Data request: And for c1ccc2c(Nc3ccncc3)nc(-c3ccoc3)nc2c1 ?
Data returned: inactive

Data request: Now consider CCn1c(=N)c(C(=O)NCCCOC)cc2c(=O)n3cccc(C)c3nc21 .
Data returned: active

====

test: qHTS Assay for Spectroscopic Profiling in A350 Spectral Region; details: Compound autofluorescence, 340/450 nm, Alexa 350 dye-equivalents
Out of some 59,000 compounds screened, about 6,500 (11%) were called active. Another 15% or so got no clear call; they are omitted. Cut-off read from the data, not from the text of the source: active = max dye-equivalent concentration above about 10 nM; inconclusive = mostly about 1.1 nM to 9.6 nM; inactive = weaker than that. This is one part of a sample in which actives are shown more often than they occur.
Answer with one of the outcomes given here: Yes (active), No (inactive)

Data request: What did the test return for C=C(Br)CN1CCN(CC(=C)Br)CC1 ?
Data returned: No

Data request: CSCCC(NC(=O)c1ccc(=O)n(C)n1)c1nc2ccccc2[nH]1 (stereo not drawn) , same question.
Data returned: No

Data request: Then this molecule: CCn1nc(NC(=O)c2ccco2)c2cc3ccc(C)cc3nc21
Data returned: Yes

Data request: Moving on to CCC(C)Sc1nc2c(c(=O)[nH]c(=O)n2C)n1CC(O)COc1cccc2ccccc12 (stereo not drawn)
Data returned: No

Data request: One more molecule: Cc1ccnc(NC(=O)c2ccc(NC(=O)c3ccco3)cc2)c1
Data returned: No

Data request: Try this molecule too: CC(=O)c1c(C)n(-c2ccc(N(C)C)cc2)c2ccc(OCC(N)=O)cc12
Data returned: No

Data request: Can you check Cn1c(=O)[nH]c(=O)c2c1nc(Br)n2CCCCSc1nc2ccccc2o1 next?
Data returned: No

Data request: Same lookup for CSc1nnc(-c2ccncc2)n1CCCN1CCCC1=O , please.
Data returned: No

Data request: Repeat for the following molecule: Cc1oc2nc(SCC(=O)NCc3cccnc3)nc(N)c2c1C
Data returned: No

Data request: Now consider O=C(NC1CC2CCCC(C1)N2C(=O)N1CCCCC1)C1CCCCC1 (stereo not drawn) .
Data returned: No

Data request: Query Cc1ccc2[nH]c3c(c2c1)CN(C(=O)CN1CCN(c2ccccc2)CC1)CC3 next
Data returned: No

Data request: What about this molecule? O=c1cnc2cnc(Nc3ccccc3)nc2n1Cc1ccc(F)cc1
Data returned: No

Data request: Try this molecule next: Cc1ccc(C(=O)CS(C)(=O)=O)cc1
Data returned: Yes

Data request: Consider next the molecule CCOC(=O)Cc1csc(NC(=O)C(C)(C)C)n1 in the same way.
Data returned: No

Data request: Similarly, c1ccc(CCN2CCN=C2Cc2ccccc2)cc1 ?
Data returned: No

Data request: Likewise for CN1c2ccccc2-c2nc3ccccc3n2C1c1ccco1 (stereo not drawn) ?
Data returned: Yes

Data request: Further, for CCOC(=O)NCc1ccc2c(c1)OCO2 ?
Data returned: No

Data request: Query COc1ccc(C(=O)CSc2nccc(=O)[nH]2)cc1 next
Data returned: No

====

test: qHTS Assay for Spectroscopic Profiling in A350 Spectral Region; details: Compound autofluorescence, 340/450 nm, Alexa 350 dye-equivalents
The campaign covered roughly 59,000 compounds. About 6,500 (11%) were called active. About 15% were inconclusive and are not listed. Cut-off read from the data, not from the text of the source: active = max dye-equivalent concentration above about 10 nM; inconclusive = mostly about 1.1 nM to 9.6 nM; inactive = weaker than that. The entries come from a sample that favours actives as a whole.
# valid calls are class 1 (active), class 0 (inactive); nothing else

Data request: Outcome logged for COc1ccccc1N1CCN(C(=O)c2ccc(S(=O)(=O)N3CCCCC3)cc2)CC1 in this assay:
Data returned: class 0

Data request: Next entry: O=C(CSc1nnc(-c2cccs2)n1Cc1ccco1)c1ccc2c(c1)OCO2
Data returned: class 0

Data request: Check O=C(N1CCOCC1)N1CCOCC1 too.
Data returned: class 0

Data request: Also CCC1SC2=NCCN2C1(O)c1ccc(Cl)cc1 (configuration not stated) , if possible.
Data returned: class 0

Data request: Next compound: Cc1cc(Cl)c(S(=O)(=O)Nc2ccc3c(c2)OCCO3)cc1OCC(N)=O
Data returned: class 0

Data request: Subsequent entry: N#CC(C(=O)c1ccc(S(=O)(=O)N2CCCCCC2)cc1)c1nc2ccccc2[nH]1 (configuration not stated)
Data returned: class 1

Data request: Could you do the same for Cc1ccccc1-c1nnn(CC(=O)c2ccc(S(=O)(=O)N3CCCC3)cc2)n1 , please?
Data returned: class 0

====

test: qHTS Assay for Spectroscopic Profiling in A350 Spectral Region; conditions: Compound autofluorescence, 340/450 nm, Alexa 350 dye-equivalents
In all, about 59,000 compounds went through this assay and about 6,500 (11%) were called active. Another 15% or so got no clear call; they are omitted. No stated cut-off is given here; in the data, active means max dye-equivalent concentration above about 10 nM; inconclusive means mostly about 1.1 nM to 9.6 nM; inactive means weaker than that. This excerpt belongs to a sample that is enriched for actives.
Please reply with one of these outcomes: 1 (active), 0 (inactive)

Data request: Please let me know the test result on file for O=C(Nc1cccc(OCC(=O)N2CCOCC2)c1)C1CCCCC1 .
Data returned: 0

Data request: What about this molecule? Cc1ccc(C)n1C(Cc1ccccc1)C(=O)O (stereo unspecified)
Data returned: 1

Data request: Please answer likewise for CC(=O)N1CCC2(CC1)CCN(c1ccncc1)CC2
Data returned: 0

Data request: Now try COc1cccc(Oc2ccc(N)cc2)c1 .
Data returned: 0

Data request: Try this molecule next: COC(=O)N1CCC2(CCCN(Cc3ccccc3OC)C2)CC1
Data returned: 0

Data request: What do we get for Cc1ccn2cc(C(=O)NC3CCN(Cc4ccccc4)CC3)nc2c1 ?
Data returned: 0

Data request: Now consider CC(CCO)Nc1nc2c([nH]1)c(=O)n(C)c(=O)n2C (stereo unspecified) and answer again.
Data returned: 0

Data request: And what about the molecule COc1cc(NS(=O)(=O)c2ccc(NC(C)=O)cc2)cc(OC)c1 ?
Data returned: 0

Data request: Quick one: CCCN1C2=C(C(=O)CCC2)C(c2ccc(O)c(Br)c2)C2=C1CCCC2=O
Data returned: 1

Data request: What about this molecule? CCOC(=O)c1c(NC(=O)CSc2nnc(Cc3csc(N)n3)n2C)sc(C)c1C
Data returned: 0

Data request: Try the molecule O=C(c1cc(C(F)(F)F)cc(C(F)(F)F)c1)N1CCC2(CCCN(Cc3ccncc3)C2)CC1
Data returned: 0

Data request: Next record, please: Cn1c(=O)c2[nH]c(NCC3CCCO3)nc2n(-c2ccccc2)c1=O (stereo unspecified)
Data returned: 1

Data request: Likewise for COc1ccc(CCNS(=O)(=O)c2ccc(F)cc2)cc1OC ?
Data returned: 0

Data request: What about this molecule? Cc1ccc(-n2ncc3c(N4CCN(c5ccc(F)cc5)CC4)ncnc32)c(C)c1
Data returned: 0

Data request: # iterate: CCOC(=O)c1c(NC(=O)c2cccs2)sc(C)c1C
Data returned: 1

Data request: And for O=c1cc(-c2ccccc2)[nH]c2nc(Cl)ccc12 ?
Data returned: 1

====

test: qHTS Assay for Spectroscopic Profiling in A350 Spectral Region; settings: Compound autofluorescence, 340/450 nm, Alexa 350 dye-equivalents
About 6,500 (11%) of roughly 59,000 compounds were called active. Another 15% or so got no clear call; they are omitted. Rule as the data show it: active = max dye-equivalent concentration above about 10 nM; inconclusive = mostly about 1.1 nM to 9.6 nM; inactive = weaker than that. Many of the other results were omitted from the sample, so actives are more common in it than they were.
In this exercise, the only acceptable responses are 1 (yes) (active), 0 (no) (inactive)

Data request: Hi, do you know how CC(=NCc1ccc2c(c1)OCO2)C1=C(O)c2ccccc2C1=O came out in this test?
Data returned: 0 (no)

Data request: Moving on to the next compound: CCOc1cc(-c2nc3cc(C)ccn3c2NCC2CCCO2)ccc1O (stereo unspecified)
Data returned: 1 (yes)

Data request: Quick one: CN(C)/C=C/c1c(C#N)c(=O)ncn1Cc1ccccc1
Data returned: 0 (no)

Data request: Check COC(=O)c1[nH]c2ccccc2c1NS(=O)(=O)c1ccc(OC)cc1OC too.
Data returned: 0 (no)

Data request: Now consider O=C(NCc1cccnc1)c1cn(-c2ccccc2)nc1-c1cccs1 and answer again.
Data returned: 0 (no)

Data request: Further, for COc1ccc2[nH]c3c(=O)n(Cc4ccco4)cnc3c2c1 ?
Data returned: 1 (yes)

Data request: Now try NC(=O)CSc1oc(-c2cccs2)nc1S(=O)(=O)c1ccccc1 .
Data returned: 0 (no)

Data request: Try this compound too: CC(C)Cc1nc(N2CCOCC2)c(C#N)c2c1CCC2
Data returned: 1 (yes)

Data request: Entry to check: Cn1cccc1C(=O)N1CCC2(CC1)CN(c1cccc(-c3ccccc3)c1)C2
Data returned: 0 (no)

Data request: One more compound: COc1cccc(-c2cc(NCCc3c[nH]c4ccc(OC)cc34)ncn2)c1
Data returned: 0 (no)

Data request: Query Cn1c(=O)c(-c2ccccc2)nc2cnc(N3CCNCC3)nc21 next
Data returned: 1 (yes)

Data request: Consider next the compound CC1(C)CC(=O)NC=C(c2ccccc2)C1 in the same way.
Data returned: 0 (no)

Data request: Repeat for the following compound: CCN1CCN(c2ncnc3c2oc2nc(C)c4c(c23)CC(C)(C)OC4)CC1
Data returned: 0 (no)

Data request: Can you handle Cc1cc(C(=O)COC(=O)CCCN2C(=O)c3ccccc3C2=O)c(C)n1C next?
Data returned: 0 (no)

Data request: Would you mind doing O=C(Nc1ccc(S(=O)(=O)N2CCCCC2)cc1)c1cnccn1 as well?
Data returned: 0 (no)

Data request: And the next one, O=C(COc1ccc(S(=O)(=O)NCCc2ccccc2)cc1)N1CCCC1 ?
Data returned: 0 (no)
